meta.source: patent US9833497B2

- Tested on: Proteus mirabilis
- protocol notes: MIC against Gram-negative bacteria: Proteus mirabilis
- Type: cell-based
- run parameters: Proteus mirabilis; 96-well plate, 5×10^5 CFU/mL, 37° C., 10 h
measure name: MIC (μg/mL) P. mirabilis (µg/mL)
Could you give me the number in µg/mL? Just the number is fine.

Check out these entries, answers already filled in.
- substance: "PRT25 (PGVCRNGGTCTDAPNGGFRCQCPAGGAFEGPRCE; listed as Homo sapiens)"
  observed: 12.5
- substance: "PRT76 (EVDLCYSRPCGPHGRCRSREGGYTCLCRDGYTGEHCE; listed as Homo sapiens)"
  observed: 12.5
- substance: "PRT40 (KGIDCSDGFNGGCEQLCLQQTLPLPYDATSSTIFMFCGCVEEYKLAPDGKSCL; listed as Homo sapiens)"
  observed: 12.5
- substance: "PRT13 (PARSCAEEPCGAGTCKETEGHVICLCPPGYTGEHCN; listed as Homo sapiens)"
  observed: 50
- substance: "PRT58 (PCALGEGPACAHCAPDNSTRCGSCNPGYVLAQGLCR; listed as Homo sapiens)"
  observed: 100
- substance: "PRT78 (KKNVCDSNTCHNGGTCVNQWDAFSCECPLGFGGKSCA; listed as Homo sapiens)"
  observed: 50
- substance: "PRT70 (VDDPCTSSPCPPNSRCHDAWEDYSCVCDKGYLGINC; listed as Homo sapiens)"
  observed: 50
- substance: "PRT110 (DIDECASSNGTLCAHICINTLGSYRCECREGYIREDDGKTCT; listed as Homo sapiens)"
  observed: 12.5

Which value of MIC (μg/mL) P. mirabilis has been reported for PRT66 (DDNICLREPCENYMKCVSVLRFDSSAPFLSSTTVLFRPIHPINGLRCRCPPGFTGDYCE; listed as Homo sapiens) in the records?
25

Which value of MIC (μg/mL) P. mirabilis has been reported for PRT38 (VRDLCGQRTTDACEQLCDPETGECSCHEGYAPDPVHRHLCV; listed as Homo sapiens) in the records?
25

Which value of MIC (μg/mL) P. mirabilis has been reported for PRT21 (NCATPCTEGCECNQGFVLSTSQCV; listed as Homo sapiens) in the records?
50

---

# MIC (μg/mL) E. cloacae annotations
- System: Enterobacter cloacae
- protocol notes: MIC against Gram-negative bacteria: Enterobacter cloacae
- Format: cell-based
- run parameters: Enterobacter cloacae; 96-well plate, 5×10^5 CFU/mL, 37° C., 10 h
Could you give me the number in µg/mL? Just the number is fine.

- substance: "PRT71 (VDACHLNPCENMGACVRSPGSPQGYVCECGPSHYGPYCE; listed as Homo sapiens)"
  units label: "µg/mL"
  MIC (μg/mL) E. cloacae: 50
- substance: "PRT45 (SINSCPNNCSGHGKCTTSVSVPSQVYCECDKYWKGEACD; listed as Homo sapiens)"
  units label: "µg/mL"
  MIC (μg/mL) E. cloacae: 50
- substance: "PRT18 (CQCNPHGSYGGTCDPATGQCSCRPGVGGLRCDRCEPGFWNFRGIVTDGRSGCTP; listed as Homo sapiens)"
  units label: "µg/mL"
  MIC (μg/mL) E. cloacae: 50
- substance: "PRT44 (LYAQVSQSKPCERTGSCFSGRCVNSTCLCDPGWVGDQCQ; listed as Homo sapiens)"
  units label: "µg/mL"
  MIC (μg/mL) E. cloacae: 12.5
- substance: "PRT24 (ELDLCYSNPCRNGGACARREGGYTCVCRPRFTGEDCE; listed as Homo sapiens)"
  units label: "µg/mL"
  MIC (μg/mL) E. cloacae: 12.5
- substance: "PRT137 (NPCQGSATCVNTPGERSFLCKCPPGYSGTICE; listed as Homo sapiens)"
  units label: "µg/mL"
  MIC (μg/mL) E. cloacae: 25
- substance: "PRT118 (DVDECVGPGGPLCDSLCFNTQGSFHCGCLPGWVLAPNGVSCT; listed as Homo sapiens)"
  units label: "µg/mL"
  MIC (μg/mL) E. cloacae: 12.5
- substance: "PRT143 (PRNPCRMSCQNHGRLNISTCHCHCPPGYTGRYCQ; listed as Homo sapiens)"
  units label: "µg/mL"
  MIC (μg/mL) E. cloacae: 12.5
- substance: "PRT26 (CDSGPCKNSGFCSERWGSFSCDCPVGFGGKDCQ; listed as Homo sapiens)"
  units label: "µg/mL"
  MIC (μg/mL) E. cloacae: 25
- substance: "PRT15 (GDHPCLPNPCHGGAPCQNLEAGRFHCQCPPGRVGPTCA; listed as Homo sapiens)"
  units label: "µg/mL"
  MIC (μg/mL) E. cloacae: 50

Which value of MIC (μg/mL) E. cloacae has been reported for PRT39 (PVRDCSRNNGGCTRNFKCVSDRQVDSSGCVCPEELKPMKDGSGCY; listed as Homo sapiens) in the records?
25

Which value of MIC (μg/mL) E. cloacae has been reported for PRT83 (DDNVCLREPCENYMKCVSVLRFDSSAPFLASASTLFRPIQPIAGLRCRCPPGFTGDFCE; listed as Homo sapiens) in the records?
25
